System: Cytochrome P450 2D6 (Homo sapiens, UniProt P10635) | Read-out: IC50 | Origin: multiple publications
OUTCOME_MEASURE: IC50

>>> result("O=C(O)[C@H]1CCCN(S(=O)(=O)c2ccccc2C(F)(F)F)C1")
"> 50 µM"
>>> result("N#Cc1c(Cl)cnc2[nH]cc(C(=O)c3c(F)ccc(NS(=O)(=O)c4ccc(C(F)(F)F)cc4)c3F)c12")
"< 5 µM"
>>> result("CO[C@H]1[C@@H](CF)OC(N)=N[C@]1(C)c1cc(NC(=O)c2ncc(Cl)cc2Cl)ccc1F")
"≥ 20 µM"
>>> result("CC1CN(c2ncc(S(=O)(=O)N3CCN(Cc4cncn4[C@H](C)c4ccc(F)cc4)CC3)s2)C[C@@H]2C[C@@H](O)CN12 (stereo partly drawn)")
"4.65 µM"
>>> result("O=C(c1ccc(NC2CCC(F)(F)CC2)nc1Cl)c1c[nH]c2ncnc(NCC(F)(F)F)c12")
"> 10 µM"
>>> result("Cc1cnc(Nc2cnn(C3CCN(C)CC3)c2)nc1-c1ccc(C(=O)N[C@@H](C)C#N)cc1")
"> 50 µM"
>>> result("CCOc1cc2c(cc1OC)-c1c/c(=N\\c3c(C)cc(C)cc3C)n(CCNC(=O)c3c(O)nnn3C)c(=O)n1CC2")
"≥ 50 µM"
>>> result("CO[C@@H]1CN(C2CCN(C(=O)c3cncn3[C@@H](C)c3ccccc3-c3ccc(F)cc3)CC2)C[C@H]1O")
"9.72 µM"
>>> result("Cc1ncccc1Oc1ncnc(OC2CCN(C(=O)OC(C)C)CC2)c1C")
"> 40 µM"
>>> result("Cc1ccc(Nc2ccc(C(=O)c3c[nH]c4ncnc(NC5CCCCC5)c34)c(F)n2)cn1")
"> 10 µM"
>>> result("CCNc1ncnc2[nH]cc(C(=O)c3ccc(NC4CCC(F)(F)CC4)nc3Cl)c12")
"> 10 µM"
>>> result("Cc1ccc(Nc2ccc(C(=O)c3c[nH]c4ncnc(C5CC5)c34)c(F)n2)cn1")
"< 5 µM"
>>> result("C[C@@H]1CCc2c(Oc3c(Cl)cc(-n4nc(C#N)c(=O)[nH]c4=O)cc3Cl)n[nH]c(=O)c21 (single isomer, unassigned)")
"> 50 µM"
>>> result("CO[C@H]1[C@@H](C(F)(F)F)OC(N)=N[C@]1(C)c1cc(NC(=O)c2ccc(C#N)cn2)ccc1F")
"≥ 20 µM"
>>> result("COc1ccc(Nc2ccc(C(=O)c3c[nH]c4ncnc(NC(C)(C)C)c34)c(F)n2)cn1")
"> 10 µM"
